Entries and their IC50 values follow.
# target: B-Raf (V600E) (SEQ. ID NO: 4) kinase (Homo sapiens (Human), UniProt P15056, V600E)
# Sequence (P15056 416-766 V600E): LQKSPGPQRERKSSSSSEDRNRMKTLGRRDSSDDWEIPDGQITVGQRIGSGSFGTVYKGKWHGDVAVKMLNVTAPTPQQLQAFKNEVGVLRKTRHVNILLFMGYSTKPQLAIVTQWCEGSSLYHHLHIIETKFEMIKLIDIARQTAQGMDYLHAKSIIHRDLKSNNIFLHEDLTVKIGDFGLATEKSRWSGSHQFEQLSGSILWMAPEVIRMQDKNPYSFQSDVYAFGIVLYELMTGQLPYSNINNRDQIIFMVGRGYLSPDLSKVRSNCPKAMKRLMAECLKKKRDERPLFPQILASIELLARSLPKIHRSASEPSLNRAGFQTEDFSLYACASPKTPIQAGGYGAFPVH
# testDescription: Biochemical Assay for B-Raf (V600E) (1)
# conditionDescription: Table J, BRAF V600E, assay version (1); read-out: BRAF VE (1) IC50

compound	target	IC50
CC(=O)Nc1cc(-c2cc(-c3cc(NC(=O)c4ccnc(C(F)(F)F)c4)ccc3C)nc(C)n2)ccn1 [Example 83]	B-Raf (V600E) (SEQ. ID NO: 4) kinase (Homo sapiens (Human), UniProt P15056, V600E)	≤ 100 nM
Cc1ccc(NC(=O)c2ccnc(C(F)(F)F)c2)cc1-c1cncc(-c2ccnc(N)c2)n1 [Example 90]	B-Raf (V600E) (SEQ. ID NO: 4) kinase (Homo sapiens (Human), UniProt P15056, V600E)	≤ 100 nM
Cc1ccc(NC(=O)C23CCC(C#N)(CC2)CC3)cc1-c1ccnc(-c2ccnc(NC(=O)C3CC3)c2)n1 [Example 340]	B-Raf (V600E) (SEQ. ID NO: 4) kinase (Homo sapiens (Human), UniProt P15056, V600E)	≤ 100 nM
Cc1ncc(NC(=O)C2CCN(C)C2)cc1-c1nccc(-c2ccnc(NC(=O)C3CC3)c2)n1 (stereo not drawn) [Example 334]	B-Raf (V600E) (SEQ. ID NO: 4) kinase (Homo sapiens (Human), UniProt P15056, V600E)	1000 to 10000 nM
CNC(=O)c1cc(-c2cc(-c3cc(NC(=O)CCC(C)(C)C#N)ccc3C)ccn2)ccn1 [Example 357]	B-Raf (V600E) (SEQ. ID NO: 4) kinase (Homo sapiens (Human), UniProt P15056, V600E)	500 to 1000 nM
Cc1ccc(NC(=O)c2ccnc(C(F)(F)F)c2)cc1-c1ccnc(-c2ccnc(N)c2)n1 [Example 122]	B-Raf (V600E) (SEQ. ID NO: 4) kinase (Homo sapiens (Human), UniProt P15056, V600E)	≤ 100 nM
CC(=O)Nc1cc(-c2nccc(-c3cc(NC(=O)c4ccnc(C5(C#N)CC5)c4)ccc3C)n2)ccn1 [Example 151]	B-Raf (V600E) (SEQ. ID NO: 4) kinase (Homo sapiens (Human), UniProt P15056, V600E)	≤ 100 nM
COCC(=O)Nc1cc(-c2cccc(-c3cc(NC(=O)c4ccnc(C(F)(F)F)c4)ccc3C)c2)ccn1 [Example 57]	B-Raf (V600E) (SEQ. ID NO: 4) kinase (Homo sapiens (Human), UniProt P15056, V600E)	≤ 100 nM
CNC(=O)c1cc(-c2nccc(-c3cc(NC(=O)c4ccnc(C(C)(C)C#N)c4)ccc3C)n2)ccn1 [Example 78]	B-Raf (V600E) (SEQ. ID NO: 4) kinase (Homo sapiens (Human), UniProt P15056, V600E)	≤ 100 nM
Cc1ncc(NC(=O)C2CCOC2)cc1-c1cccc(-c2cc(NC(=O)C3CC3)ncn2)c1 (stereo not drawn) [Example 352]	B-Raf (V600E) (SEQ. ID NO: 4) kinase (Homo sapiens (Human), UniProt P15056, V600E)	500 to 1000 nM
Cc1ncc(NC(=O)C2CCOC2)cc1-c1ccnc(-c2ccnc(NC(=O)C3CC3)c2)n1 (stereo not drawn) [Example 337]	B-Raf (V600E) (SEQ. ID NO: 4) kinase (Homo sapiens (Human), UniProt P15056, V600E)	1000 to 10000 nM
Cc1ncc(NC(=O)CC2COC2)cc1-c1cccc(-c2cc(NC(=O)C3CC3)ncn2)c1 [Example 356]	B-Raf (V600E) (SEQ. ID NO: 4) kinase (Homo sapiens (Human), UniProt P15056, V600E)	500 to 1000 nM
CC(=O)Nc1cc(-c2ccnc(-c3cc(NC(=O)c4ccnc(C(F)(F)F)c4)ccc3C)n2)ccn1 [Example 92]	B-Raf (V600E) (SEQ. ID NO: 4) kinase (Homo sapiens (Human), UniProt P15056, V600E)	≤ 100 nM
CNC(=O)c1cc(-c2cc(-c3cc(NC(=O)COCC4CC4)ccc3C)ccn2)ccn1 [Example 358]	B-Raf (V600E) (SEQ. ID NO: 4) kinase (Homo sapiens (Human), UniProt P15056, V600E)	500 to 1000 nM
Cc1ncc(NC(=O)C23CCC(C#N)(CC2)CC3)cc1-c1cccc(-c2ccnc(NC(=O)C3CC3)c2)n1 [Example 342]	B-Raf (V600E) (SEQ. ID NO: 4) kinase (Homo sapiens (Human), UniProt P15056, V600E)	1000 to 10000 nM
